B1: KCTD10 (parent)
chain: SSKEEQKLIATSNKPAVKLLYNRS

variants of: B1; experiment: protein stability index of a GFP-peptide fusion (GPS, HEK-293T) (PSI 1-6); higher = more stable; details: c terminus: a fixed tail appended;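 note: lentivirally expressed fusions sorted by FACS into six bins by GFP to DsRed ratio, PSI derived from sequencing read proportions per bin multiplied by bin number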
Is protein stability index at least 4? Then TRUE. If not, FALSE.

mutant | answer.label
I9S | TRUE
R23N | TRUE
S24Q | TRUE
V17P | TRUE
P15Y | FALSE
K3S | FALSE
N22R | TRUE
T11L | FALSE
V17S | TRUE
R23K | TRUE
A10H | TRUE
Q6T | TRUE
T11V | FALSE
A10F | FALSE
